Biological target: Bromodomain adjacent to zinc finger domain protein 2B (Homo sapiens) (UniProt Q9UIF8)
Sequence (Q9UIF8 whole entry, looked up, the tested form may be a part): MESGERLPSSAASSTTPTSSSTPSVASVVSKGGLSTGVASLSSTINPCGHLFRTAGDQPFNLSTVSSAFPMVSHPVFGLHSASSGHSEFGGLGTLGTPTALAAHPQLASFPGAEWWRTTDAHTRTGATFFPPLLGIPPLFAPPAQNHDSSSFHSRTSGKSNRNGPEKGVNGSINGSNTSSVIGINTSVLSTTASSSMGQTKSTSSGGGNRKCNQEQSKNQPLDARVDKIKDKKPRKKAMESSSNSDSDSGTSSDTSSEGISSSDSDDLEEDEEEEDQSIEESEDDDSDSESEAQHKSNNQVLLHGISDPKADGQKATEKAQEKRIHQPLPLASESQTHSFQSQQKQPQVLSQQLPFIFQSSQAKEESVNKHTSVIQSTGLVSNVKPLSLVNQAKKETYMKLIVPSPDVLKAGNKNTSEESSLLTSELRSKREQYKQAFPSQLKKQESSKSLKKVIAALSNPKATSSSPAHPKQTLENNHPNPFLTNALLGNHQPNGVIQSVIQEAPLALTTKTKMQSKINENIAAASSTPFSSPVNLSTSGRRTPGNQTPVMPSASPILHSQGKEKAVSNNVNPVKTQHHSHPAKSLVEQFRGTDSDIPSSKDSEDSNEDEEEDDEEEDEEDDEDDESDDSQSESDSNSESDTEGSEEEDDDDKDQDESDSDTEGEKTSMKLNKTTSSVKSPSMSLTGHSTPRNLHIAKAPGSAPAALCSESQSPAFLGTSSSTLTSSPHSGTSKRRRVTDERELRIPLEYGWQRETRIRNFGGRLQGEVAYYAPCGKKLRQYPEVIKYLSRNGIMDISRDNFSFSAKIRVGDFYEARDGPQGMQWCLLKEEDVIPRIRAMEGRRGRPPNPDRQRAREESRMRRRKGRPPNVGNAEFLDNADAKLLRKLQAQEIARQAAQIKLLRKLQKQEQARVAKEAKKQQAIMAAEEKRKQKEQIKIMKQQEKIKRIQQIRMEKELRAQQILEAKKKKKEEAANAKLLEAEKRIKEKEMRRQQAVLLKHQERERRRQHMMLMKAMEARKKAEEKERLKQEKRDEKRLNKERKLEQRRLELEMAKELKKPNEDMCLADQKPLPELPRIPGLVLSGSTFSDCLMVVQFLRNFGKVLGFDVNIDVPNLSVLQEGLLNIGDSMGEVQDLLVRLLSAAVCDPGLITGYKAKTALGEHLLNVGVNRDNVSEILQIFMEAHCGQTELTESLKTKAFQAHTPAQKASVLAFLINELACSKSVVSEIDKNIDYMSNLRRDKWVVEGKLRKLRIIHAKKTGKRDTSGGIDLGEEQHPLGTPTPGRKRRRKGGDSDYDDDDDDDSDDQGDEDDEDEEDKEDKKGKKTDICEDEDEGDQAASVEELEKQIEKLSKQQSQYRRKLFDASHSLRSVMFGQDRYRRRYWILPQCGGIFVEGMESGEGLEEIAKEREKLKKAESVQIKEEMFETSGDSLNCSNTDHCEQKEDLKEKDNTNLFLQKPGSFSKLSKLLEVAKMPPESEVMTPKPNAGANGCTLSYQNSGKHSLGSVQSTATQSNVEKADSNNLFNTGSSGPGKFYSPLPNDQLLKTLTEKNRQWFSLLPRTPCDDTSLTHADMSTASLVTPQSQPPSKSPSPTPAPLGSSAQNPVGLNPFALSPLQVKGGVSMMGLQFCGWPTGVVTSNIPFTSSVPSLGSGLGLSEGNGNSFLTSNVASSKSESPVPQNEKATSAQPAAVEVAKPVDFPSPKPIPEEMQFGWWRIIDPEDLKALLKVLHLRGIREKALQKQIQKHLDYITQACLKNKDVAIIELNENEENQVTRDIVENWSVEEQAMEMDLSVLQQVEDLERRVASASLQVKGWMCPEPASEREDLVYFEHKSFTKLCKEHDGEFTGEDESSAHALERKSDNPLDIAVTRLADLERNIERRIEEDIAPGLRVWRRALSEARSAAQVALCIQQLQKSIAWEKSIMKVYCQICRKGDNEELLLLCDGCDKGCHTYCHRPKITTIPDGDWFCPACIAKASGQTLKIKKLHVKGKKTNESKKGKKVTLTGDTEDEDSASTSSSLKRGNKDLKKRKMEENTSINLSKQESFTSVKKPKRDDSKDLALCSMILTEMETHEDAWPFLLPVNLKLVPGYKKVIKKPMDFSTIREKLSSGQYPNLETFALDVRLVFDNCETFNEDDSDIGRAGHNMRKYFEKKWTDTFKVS
Experiment: qHTS Assay for Inhibitors of BAZ2B; note: nearly all actives have a fitted effect of over 60% in size; note: potency is the fitted concentration of half-maximal effect
Conditions: AlphaScreen BAZ2B-H3K14Ac peptide displacement; series mostly up to 114 µM
The whole screen tested about 360,000 compounds, of which about 16,000 (4.4%) were called active. Not shown: some 9% with an inconclusive outcome. The list comes from a sample in which actives are over-represented; it also holds close analogues and randomly drawn compounds.
reportedEndpoint: Potency

// known answers, use as guide
compound=CCOC(=O)c1ccc(NC(=O)c2c(NCc3cccs3)sc3c2CCCC3)cc1 testedon="Bromodomain adjacent to zinc finger domain protein 2B (Homo sapiens) (UniProt Q9UIF8)" reportedendpoint=Potency result="28.2 µM (active)"
compound=CN(C)c1cccc(C(=O)Nc2nc3ccc(S(=O)(=O)NC(C)(C)C)cc3s2)c1 testedon="Bromodomain adjacent to zinc finger domain protein 2B (Homo sapiens) (UniProt Q9UIF8)" reportedendpoint=Potency result=inactive
compound=COc1ccc(C)cc1NC(=O)NCc1ccccn1 testedon="Bromodomain adjacent to zinc finger domain protein 2B (Homo sapiens) (UniProt Q9UIF8)" reportedendpoint=Potency result=inactive
compound="CCC1(C)CC(=O)c2c(ccc3oc(C(=O)Nc4ccc(C(C)=O)cc4)c(C)c23)O1 (centres undefined)" testedon="Bromodomain adjacent to zinc finger domain protein 2B (Homo sapiens) (UniProt Q9UIF8)" reportedendpoint=Potency result=inactive
compound="C#CCOCCOCCOCCNc1nc(N2CCN(C(=O)[C@H](CCC(=O)O)n3cc(C(N)CO)nn3)CC2)nc(N2CCN(C(=O)[C@H](CCCCN)n3cc(C(N)[C@H](C)CC)nn3)CC2)n1 (some centres undefined)" testedon="Bromodomain adjacent to zinc finger domain protein 2B (Homo sapiens) (UniProt Q9UIF8)" reportedendpoint=Potency result="14.1 µM (active)"

Give Potency for each of the items listed below.
1. CCOc1cc(/C=C2\C(=N)N3N=C(C)SC3=NC2=O)ccc1OCCOc1ccccc1
2. O=C(COc1ccc(Cl)cc1)Nc1ccccc1OCc1cc(=O)n2ccccc2n1
3. Cc1ccc(NC(=O)CSc2nc(CSc3ccc(C)cc3)cc(=O)[nH]2)cc1
4. CCOc1ccccc1N1CCN(C(=O)c2ccc3[nH]c(C)c(C)c3c2)CC1

Given back:
["inactive", "inactive", "inactive", "44.7 µM (active)"]
